Test system: EL4
Experiment: Cytotoxicity against mouse EL4 cells after 3 days by MTT assay
Assay type: functional, cell-based
Settings: EL4, 72 h
Reported metric: pIC50
One number for each entry, as −log10 of the molar value.

Enquiry: If you can, please state the reported pIC50 value of "Nc1ncnc2c1c(-c1cc[nH]c1)cn2[C@@H]1O[C@H](CO)[C@@H](O)[C@H]1O" .
Return: 5.03

Enquiry: If you can, please state the reported pIC50 value of "Nc1ncnc2c1c(-c1cccs1)cn2[C@@H]1O[C@H](CO)[C@@H](O)[C@H]1O" .
Return: 5.03

Enquiry: If you can, please state the reported pIC50 value of "Nc1nc(Cl)nc2c1ncn2[C@H]1C[C@H](O)[C@@H](CO)O1" .
Return: 6.07

More entries:
Enquiry: If you can, please state the reported pIC50 value of "Nc1ccn([C@@H]2O[C@H](CO)[C@@H](O)C2(F)F)c(=O)n1" .
Return: 8.15

Hello, the source for this data is ChEMBL document CHEMBL1811802, in case you need it.
